# TARGET ENTITY: human serum albumin (HSA) (Homo sapiens, UniProt P02768)
# Sequence (P02768 25-609): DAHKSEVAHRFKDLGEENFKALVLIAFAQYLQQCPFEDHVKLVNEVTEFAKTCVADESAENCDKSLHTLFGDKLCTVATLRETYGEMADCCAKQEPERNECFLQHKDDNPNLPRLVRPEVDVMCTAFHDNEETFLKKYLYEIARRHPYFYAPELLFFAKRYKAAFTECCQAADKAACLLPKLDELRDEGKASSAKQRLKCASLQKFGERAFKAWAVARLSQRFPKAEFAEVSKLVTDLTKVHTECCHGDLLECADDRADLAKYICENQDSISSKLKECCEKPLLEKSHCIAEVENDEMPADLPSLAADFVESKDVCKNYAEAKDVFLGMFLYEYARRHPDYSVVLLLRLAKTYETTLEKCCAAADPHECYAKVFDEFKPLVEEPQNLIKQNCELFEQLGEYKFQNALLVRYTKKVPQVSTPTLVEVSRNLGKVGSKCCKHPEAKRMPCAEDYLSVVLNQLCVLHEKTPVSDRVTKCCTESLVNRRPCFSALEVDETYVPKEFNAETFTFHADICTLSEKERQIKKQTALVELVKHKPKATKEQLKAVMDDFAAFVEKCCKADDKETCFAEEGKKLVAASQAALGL
# METHOD DESCRIPTION: ultrafast affinity extraction, two-dimensional HSA microcolumns, UV […] nm
ASSAY ENDPOINT: Kd
Answer shape: numeric part, then the unit.

## Task Quick check: Kd of "C[C@]12CC[C@H]3[C@@H](CCC4=CC(=O)CC[C@@]43C)[C@@H]1CC[C@@H]2O" ?
## Result 31.2 µM

Ref: paper PMC4986690
